Target: T1, cynomolgus CD73 on the cell surface (293T/17-cynoCD73 cells) (cynomolgus (Macaca fascicularis), UniProt P21589 27-547 (human entry))
T1 construct: it is an ecto-domain with a His tag
T1 chain: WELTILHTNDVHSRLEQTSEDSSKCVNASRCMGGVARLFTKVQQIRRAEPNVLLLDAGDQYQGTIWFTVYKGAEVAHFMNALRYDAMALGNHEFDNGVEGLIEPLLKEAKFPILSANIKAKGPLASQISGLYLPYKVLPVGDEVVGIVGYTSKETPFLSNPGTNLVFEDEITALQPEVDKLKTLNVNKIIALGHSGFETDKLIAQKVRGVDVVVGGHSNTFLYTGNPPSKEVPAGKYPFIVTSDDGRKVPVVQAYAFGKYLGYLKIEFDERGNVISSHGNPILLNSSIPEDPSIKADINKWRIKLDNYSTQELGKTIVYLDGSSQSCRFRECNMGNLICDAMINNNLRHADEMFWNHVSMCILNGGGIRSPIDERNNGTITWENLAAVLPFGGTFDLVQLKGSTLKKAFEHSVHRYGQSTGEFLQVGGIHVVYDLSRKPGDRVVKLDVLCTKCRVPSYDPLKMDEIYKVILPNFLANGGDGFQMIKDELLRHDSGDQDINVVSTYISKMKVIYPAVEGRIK
Assay: flow cytometry on 293T/17-Cyno CD73 cells
Experimental: 2×10⁶ cells resuspended in PBS buffer were distributed into 96-well plates and incubated with gradient diluted humanized antibodies for 1 h at refrigerator 4° C. or on ice, then the cells was centrifuged for 3 min 1500 rpm at 4° C. and washed three times by PBS, and diluted APC-labeled goat anti-human polyclonal antibody (Biolegend) were incubated for 30 min at refrigerator 4° C. Finally, the cells were washed three times with PBS as described above and analyzed on MACSQuant flow cytometer. […]
propertyLabel: pEC50
Interpret pEC50 as the negative base-10 log of the concentration measured in mol/L.

Qu. Let me know recorded pEC50 for JB94H3L3 (antibody, human IgG1, kappa, V domains shown, Humanized antibody of the 94 clone, human IgG1 / kappa) VH: QVQLQQSGAEVKKPGASVKLSCKASGYTFTSYWMHWVRQRPGQGLEWIGYINPSSGYTKSNQKFKDRATLTADTSTSTAYMELSSLRSEDTAVYYCGRWLLSAWFAYWGQGTLVTVSS VL: DIQMTQSPSSLSASVGDRVTITCKASQDINTYLSWFQQKPGKSPKSLIYRSNILVDGVPSRFSGSGSGQDYTLTISSLQPEDFAIYYCLQYDDFPYTFGQGTKLEIKR , thanks.
Ans. 8.01

Where these numbers come from: patent US20220064322A1
